Biological target: mGluR5 receptor (Sus scrofa)
Sequence (I3LUI7 19-1212): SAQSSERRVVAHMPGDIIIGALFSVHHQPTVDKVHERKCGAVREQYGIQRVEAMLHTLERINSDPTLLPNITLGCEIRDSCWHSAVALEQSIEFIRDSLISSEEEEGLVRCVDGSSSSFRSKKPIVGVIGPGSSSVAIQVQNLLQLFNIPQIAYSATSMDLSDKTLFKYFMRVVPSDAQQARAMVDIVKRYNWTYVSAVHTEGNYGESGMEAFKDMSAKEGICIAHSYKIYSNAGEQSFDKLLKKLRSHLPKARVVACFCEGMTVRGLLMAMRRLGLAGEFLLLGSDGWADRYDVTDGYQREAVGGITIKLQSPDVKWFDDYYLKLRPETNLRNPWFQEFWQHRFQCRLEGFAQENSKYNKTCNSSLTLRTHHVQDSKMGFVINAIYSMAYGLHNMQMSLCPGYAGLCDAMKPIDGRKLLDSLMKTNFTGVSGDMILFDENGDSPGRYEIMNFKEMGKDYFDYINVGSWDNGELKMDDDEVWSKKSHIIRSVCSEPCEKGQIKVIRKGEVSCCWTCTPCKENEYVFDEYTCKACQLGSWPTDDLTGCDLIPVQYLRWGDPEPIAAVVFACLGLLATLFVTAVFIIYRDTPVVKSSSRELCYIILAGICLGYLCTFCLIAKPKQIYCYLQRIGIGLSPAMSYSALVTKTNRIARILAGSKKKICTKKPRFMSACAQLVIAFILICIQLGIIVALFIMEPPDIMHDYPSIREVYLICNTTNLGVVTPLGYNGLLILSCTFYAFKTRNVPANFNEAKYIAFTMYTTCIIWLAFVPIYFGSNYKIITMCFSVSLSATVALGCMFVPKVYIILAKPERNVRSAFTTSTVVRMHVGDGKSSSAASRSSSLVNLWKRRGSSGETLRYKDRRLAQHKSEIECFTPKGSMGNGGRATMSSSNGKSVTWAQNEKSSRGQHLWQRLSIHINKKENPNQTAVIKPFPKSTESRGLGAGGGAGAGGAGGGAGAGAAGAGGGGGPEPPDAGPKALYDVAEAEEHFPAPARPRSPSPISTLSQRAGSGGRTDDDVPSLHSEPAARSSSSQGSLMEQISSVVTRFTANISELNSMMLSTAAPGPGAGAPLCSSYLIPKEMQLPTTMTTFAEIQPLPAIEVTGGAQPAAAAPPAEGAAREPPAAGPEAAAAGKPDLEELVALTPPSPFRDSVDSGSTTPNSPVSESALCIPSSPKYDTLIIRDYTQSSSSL
Assay: Affinity for the mGluR5 receptor: inhibition of 3[H]-MPEP binding in pig brain homogenate
Settings: 10 μM compound, 5 nM 3[H]-MPEP, read-out: mGluR5 receptor inhibition of ^3[H]-MPEP binding [10 μM] in % at a concentration of the example compounds of 10 μM
Reported endpoint: inhibition at 10 µM (%)

The examples below pair each entry with its known result.
C(#Cc1ccc(-c2nc3cnccn3c2NCC2CCCCC2)s1)c1ccccc1 : 100
C(#Cc1ccccn1)c1cccc(-c2nc3ncccn3c2NC2CCCCC2)c1 : 77
C(#Cc1ccc(-c2nc3cnccn3c2NC2CCCC2)o1)c1ccccc1 : 49
C(#Cc1ccccn1)c1ccc(-c2nc3cnccn3c2NC2CCCC2)cc1 : 95
CC(C)(C)Nc1c(-c2ccc(C#Cc3ccccn3)cc2)nc2ccccn12 : 83
CC(C)(C)Nc1c(-c2ccc(C#Cc3ccccc3)nc2)nc2ccccn12 : 72
CC(C)(C)CC(C)(C)Nc1c(-c2ccc(C#Cc3ccccc3)nc2)nc2ncccn12 : 43
Cc1cccc(C#Cc2cccc(-c3nc4ccc(Cl)cn4c3NC3CCCC3)c2)n1 : 81

1: Cc1cc(Br)c2nc(-c3cccc(C#Cc4cccc(C)n4)c3)c(NC(C)(C)CC(C)(C)C)n2c1
2: Cc1cccc(C)c1Nc1c(-c2cc(C#Cc3ccccc3)cs2)nc2c(C)cc(Br)cn12
3: COc1ccc(CNc2c(-c3ccc(C#Cc4ccccc4)s3)nc3nc(C)ccn23)cc1
Task: Order the items by recorded inhibition at 10 µM; the first position goes to the largest value. // respond by listing labels in the order requested
Output: 3, 1, 2
